- Method: Cellular viability qHTS for adrenocortical cancer (ACC) cell line NCI-H295R (AID 1963990); further: nearly all actives have a fitted effect of over 60% in size
- Assay conditions: CellTiter-Glo ATP luminescence, 48 h; series mostly up to 46.1 µM
- Excerpt: PI: Naris Nilubol, MD Surgical Oncology Program, National Cancer Institute (NCI) National Institute of Health (NIH), Bethesda, Maryland Adrenocortical cancer (ACC) is a rare malignancy with poor survival outcomes and few treatment options. Currently, mitotane is the only FDA-approved therapy for ACC. […] Through a quantitative high-throughput drug screen (qHTS), we identified auranofin (AF), a thioredoxin reductase (TXNRD) inhibitor, as a promising candidate drug. […]
Inconclusive results are not listed. The source made the active and inactive calls. The call rests on the fitted dose curve; in most records, active means well fitted cell-killing curve with a large enough effect; inconclusive means small, poorly fitted or top-dose-only effect; inactive means flat fitted curve, though single readings scatter.
Output constraint: value belongs to active, inactive

COc1ccc2c(Oc3ccc(NC(=O)c4c(C)n(CC(C)(C)O)n(-c5ccccc5)c4=O)nc3)ccnc2c1: inactive
Cc1cccc(C)c1NC(=O)c1cc(S(N)(=O)=O)c(Cl)cc1O: inactive
O=S(=O)(c1cccc2cnccc12)N1CCCNCC1: inactive
CC[C@@H](CO)NCCN[C@@H](CC)CO: inactive
Cc1cc(O)c2c(c1)C(=O)c1cccc(O)c1C2=O: inactive
N#CN1CCC[C@@H](n2nc(-c3ccc(Oc4ccc(F)cc4F)cc3)c(C(N)=O)c2N)C1: inactive
CC1COc2c(N3CCN(C)CC3)c(F)cc3c(=O)c(C(=O)O)cn1c23 (centres undefined): inactive
CC(=O)NCCCCCC(=O)O: inactive

Task: Kindly provide the recorded test outcome for the following compound: "Cc1[nH]c(=O)c(C#N)cc1-c1ccncc1"
Output: inactive

Task: Kindly provide the recorded test outcome for the following compound: COc1ccnc2c1CCCCC2S(=O)c1nc2ccccc2[nH]1 (centres undefined)
Output: inactive

----------
- Subject of test: Cytochrome P450 3A7 (Homo sapiens)
- Method: Cytochrome P450 family 3 subfamily A member 7 (CYP3A7) small molecule antagonists: luciferase biochemical qHTS assay (AID 1963596); further: nearly all actives have a fitted effect of over 40% in size
- Assay conditions: P450-Glo CYP3A7 enzyme luminescence, 1 h; series mostly up to 57.4 µM
Results filed as inconclusive are left out. The source made the active and inactive calls. Calls follow the shape of the dose curve; as a rule, active = well fitted inhibition curve with a large enough effect; inconclusive = small, poorly fitted or top-dose-only effect; inactive = no such curve, though single readings can be large or run the other way.
Output constraint: value belongs to active, inactive

COc1ccc(C(=O)NCc2ccc(OCCN(C)C)cc2)cc1OC: inactive
NS(=O)(=O)Cc1noc2ccccc12: inactive
C[C@@H](N)c1ccc(C(=O)Nc2ccnc3[nH]ccc23)cc1: inactive
CC(CNS(=O)(=O)C(C)C)c1ccc(-c2ccc(C#N)cc2)cc1 (stereo not given): inactive
NC(=O)c1ncn([C@@H]2O[C@H](CO)[C@@H](O)[C@H]2O)n1: inactive

Task: Kindly provide the recorded test outcome for the following compound: "O=C(Nc1ccc(Br)cc1)c1cc(Br)c(Br)s1"
Output: inactive

Task: Kindly provide the recorded test outcome for the following compound: "CS(=O)(=O)c1ccc([C@@H](O)[C@@H](CO)NC(=O)C(Cl)Cl)cc1"
Output: inactive

Task: Kindly provide the recorded test outcome for the following compound: CCOC(CN1CCN(CC(C)C(=O)c2ccccc2)CC1)c1ccccc1 (stereo not given)
Output: inactive

----------
- Method: Cellular viability qHTS for adrenocortical cancer (ACC) cell line NCI-H295R (AID 1963990); further: nearly all actives have a fitted effect of over 60% in size
- Assay conditions: CellTiter-Glo ATP luminescence, 48 h; series mostly up to 46.1 µM
Results filed as inconclusive are left out. Calls of active or inactive are those of the source. The call rests on the fitted dose curve; in most records, active means well fitted cell-killing curve with a large enough effect; inconclusive means small, poorly fitted or top-dose-only effect; inactive means flat fitted curve, though single readings scatter.
Output constraint: value belongs to active, inactive

Example entries and their recorded answers appear below.
Cc1ccc(-c2ccc3ncc4c(c3n2)n(C2CCN(C(=O)[C@H](C)O)CC2)c(=O)n4C)cn1: active
CCn1c(=O)c2c(nc(C=Cc3ccc(OC)c(OC)c3)n2C)n(CC)c1=O: inactive
COc1ncnc(NS(=O)(=O)c2ccc(N)cc2)c1OC: inactive
CN1CCC[C@@H]1CCO[C@](C)(c1ccccc1)c1ccc(Cl)cc1: active
Cc1cnc(-c2cnc(NCCNc3ccc(C#N)cn3)nc2-c2ccc(Cl)cc2Cl)[nH]1: inactive
CCCCCCCCCCCC(CC1OC(=O)C1CCCCCC)OC(=O)C(CC(C)C)NC=O (configuration not stated): inactive

Task: Kindly provide the recorded test outcome for the following molecule: "NC(=O)[C@H]1CCS[C@@H]2C[C@]3(CCCN3C(=O)Cc3ccc(NC(=O)COc4ccc(Cl)cc4Cl)cc3)C(=O)N12"
Output: active

Task: Kindly provide the recorded test outcome for the following molecule: "C[C@@H](O)[C@H]1C(=O)N2C(C(=O)O)=C(S[C@@H]3CN[C@H](C(=O)N(C)C)C3)[C@H](C)[C@H]12"
Output: inactive

Task: Kindly provide the recorded test outcome for the following molecule: "CC(C)(C)c1ccc(C(=O)CCCN2CCC(OC(c3ccccc3)c3ccccc3)CC2)cc1"
Output: active

Attribution: PubChem BioAssay (NCATS)
